- TARGET UNDER TEST: human β3 (Homo sapiens)
- Construct: used as a probe to obtain the full length human β3 gene from a human genomic library
- Sequence (P13945 whole entry): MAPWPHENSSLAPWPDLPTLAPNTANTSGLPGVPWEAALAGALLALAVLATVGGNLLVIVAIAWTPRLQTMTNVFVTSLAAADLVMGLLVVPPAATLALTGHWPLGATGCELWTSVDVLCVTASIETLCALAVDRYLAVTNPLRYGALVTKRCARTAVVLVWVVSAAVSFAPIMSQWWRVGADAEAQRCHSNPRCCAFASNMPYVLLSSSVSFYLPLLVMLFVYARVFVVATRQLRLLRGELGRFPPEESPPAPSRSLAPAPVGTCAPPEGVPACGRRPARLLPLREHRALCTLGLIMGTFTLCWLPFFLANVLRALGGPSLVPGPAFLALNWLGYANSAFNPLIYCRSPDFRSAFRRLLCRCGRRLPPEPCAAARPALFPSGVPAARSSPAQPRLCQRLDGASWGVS
- ASSAY NAME: Human β3-agonist activities (cAMP in transfected CHO cells)
- EXPERIMENTAL CONDITIONS: CHO cells expressing human β3, cAMP, 30 minutes
pEC50: −log10 of the molar value. Structures can show the parent of a compound that is named as a salt.
# Lookup of reported pEC50 keyed by entry

{"COMPOUND": "Cc1c(C2CCCN(C(=O)OC(C)(C)C)C2)[nH]c2cc(OCCNC[C@H](O)c3cccc(NS(C)(=O)=O)c3)ccc12 (some centres unmarked)", "pEC50": 8.36}
{"COMPOUND": "Cc1c(-c2cccnc2)[nH]c2cc(OCCNC[C@H](O)c3ccc(F)c(NS(C)(=O)=O)c3)ccc12", "pEC50": 8.47}
{"COMPOUND": "CCOC(=O)CCc1[nH]c2cc(OCCNC[C@H](O)c3ccc(F)c(NS(C)(=O)=O)c3)ccc2c1C", "pEC50": 8.55}
{"COMPOUND": "Cc1n[nH]c2cc(OCCNC[C@H](O)c3cccc(NS(C)(=O)=O)c3)ccc12 [Example 84, hydrochloride]", "pEC50": 7.92}
{"COMPOUND": "Cc1c(CCC(=O)N(C)C)[nH]c2cc(OCCNC[C@H](O)c3cccc(NS(C)(=O)=O)c3)ccc12", "pEC50": 8.55}
{"COMPOUND": "CNS(=O)(=O)c1cc([C@@H](O)CNCCOc2ccc3c(C)n[nH]c3c2)ccc1O", "pEC50": 7.96}
{"COMPOUND": "Cc1n[nH]c2cc(OCCNC[C@H](O)c3ccc(Cl)c(NS(C)(=O)=O)c3)ccc12", "pEC50": 8.33}
{"COMPOUND": "CCOC(=O)CCc1c(CC)[nH]c2cc(OCCNC[C@H](O)c3cccc(NS(C)(=O)=O)c3)ccc12", "pEC50": 7.49}
{"COMPOUND": "COc1n[nH]c2cc(OCCNC[C@H](O)c3cccc(NS(C)(=O)=O)c3)ccc12", "pEC50": 7.59}
{"COMPOUND": "Cc1c(C2CCCNC2)[nH]c2cc(OC[C@@H](O)NCCc3cccc(NS(C)(=O)=O)c3)ccc12 (some centres unmarked)", "pEC50": 7.68}
{"COMPOUND": "CCOC(=O)CCc1[nH]c2cc(OCCNC[C@H](O)c3cccc(NS(C)(=O)=O)c3)ccc2c1C", "pEC50": 8.85}
{"COMPOUND": "CCOC(=O)CCc1c(C)[nH]c2cc(OCCNC[C@H](O)c3cccc(NS(C)(=O)=O)c3)ccc12", "pEC50": 7.64}
{"COMPOUND": "Cc1c(-c2ccncc2)[nH]c2cc(OCCNC[C@H](O)c3cccc(NS(C)(=O)=O)c3)ccc12", "pEC50": 8.41}
{"COMPOUND": "CCOC(=O)c1[nH]c2cc(OCCNC[C@H](O)c3cccc(NS(C)(=O)=O)c3)ccc2c1C [Example 1, hydrochloride]", "pEC50": 7.82}
{"COMPOUND": "Cc1c(C(=O)O)[nH]c2cc(OCCNC[C@H](O)c3cccc(NS(C)(=O)=O)c3)ccc12", "pEC50": 7.74}
{"COMPOUND": "CCc1c(-c2cccnc2)[nH]c2cc(OCCNC[C@H](O)c3cccc(NS(C)(=O)=O)c3)ccc12", "pEC50": 8.46}
{"COMPOUND": "Cc1c(-c2cccnc2)[nH]c2cc(OCCNC[C@H](O)c3cccc(NS(C)(=O)=O)c3)ccc12", "pEC50": 8.55}
